- Test system: NF-κB pathway, THP1-Dual™ cells
- method-notes: STING reporter assay in THP1-Dual cells, NF-κB pathway (SEAP, QUANTI-Blue)
- Format: cell-based, human
- conditions: Homo sapiens, THP1-Dual, 20 h, THP1-Dual cells, 10% human plasma, 20 hours; SEAP; 100% activation = 100 μM cGAMP; read-out: NFkB (EC50 μM)
endpoint-label: EC50 (µM)

a. CSC(=O)c1cccc2cc(CNC(=O)c3cnccn3)oc12
b. O=C(OC1CCCCC1)c1cc(Cl)cc2cc(CNC(=O)c3cnn4cccnc34)oc12
c. COC(=O)c1cc(Br)cc2cc(CN3Cc4ncncc4C3=O)oc12
d. COC(=O)c1cc(F)cc2cc(CN3CCc4ccncc4C3=O)oc12
e. COC(=O)c1ccc(Cl)c2cc(CNC(=O)c3cnn4cccnc34)oc12
Lookup: In this exercise, place the 5 compounds in ascending sequence of their recorded EC50. Answer by writing out the labels in the requested order.
Found: e, b, d, a, c
(e: 0.67 µM, b: 1.9 µM, d: 4.1 µM, a: 12 µM, c: 48 µM)

A. COC(=O)c1cc(Cl)cc2cc([C@H](C)NC(=O)c3cnn4cccnc34)oc12
B. O=C(OCCOCCO)c1cc(Cl)cc2cc(CNC(=O)c3cnn4cccnc34)oc12
C. CC(OC(=O)c1cccc2cc(CNC(=O)c3cnn4cccnc34)oc12)C(F)(F)F (stereo not drawn)
D. N#Cc1cc(C(=O)OCC(F)(F)F)c2oc(CNC(=O)c3cnn4cccnc34)cc2c1
Lookup: Arrange these compounds by their EC50, starting with the largest number. Answer by writing out the labels in the requested order.
Found: D, C, B, A
(D: 12 µM, C: 4.4 µM, B: 2.5 µM, A: 1.7 µM)

###

- System: NF-κB pathway, THP1-Dual™ cells
- method-notes: STING reporter assay in THP1-Dual cells, NF-κB pathway (SEAP, QUANTI-Blue)
- Format: cell-based, human
- conditions: Homo sapiens, THP1-Dual, 20 h, THP1-Dual cells, 10% human plasma, 20 hours; SEAP; 100% activation = 100 μM cGAMP; read-out: NFkB (EC50 μM)
endpoint-label: EC50 (µM)

Reference set (5 entries):
>>> df
                                   compound  endpoint_label  unit_of_measure  readout_value
0  O=C(NCc1cc2cccc(C(=O)OCC(F)(F)F)c2o1)c1cnccn1 [EXAMPLE 216]            EC50               µM             17
1  O=C(OC1CCCC1)c1cc(Cl)cc2cc(CNC(=O)c3cnn4cccnc34)oc12 [EXAMPLE 243]            EC50               µM            1.9
2  Cc1cc(C(=O)OCC(F)(F)F)c2oc(CN3CCc4ccncc4C3=O)cc2c1 [EXAMPLE 376]            EC50               µM             16
3  C[C@@H](OC(=O)c1c(F)ccc2cc(CNC(=O)c3cnn4cccnc34)oc12)C(F)(F)F [EXAMPLE 285]            EC50               µM            1.9
4  COC(=O)c1cc(F)c(F)c2cc(CN3CCc4ccncc4C3=O)oc12 [EXAMPLE 125]            EC50               µM            4.4

1. O=C(OC1CCC1)c1cc(F)cc2cc(CNC(=O)c3cnn4cccnc34)oc12 [EXAMPLE 234]
2. O=C(OC(C(F)(F)F)C(F)(F)F)c1cccc2cc(CN3CCc4ccncc4C3=O)oc12 [EXAMPLE 209]
3. O=C(NCc1cc2cc(Cl)cc(C(=O)OCC(F)(F)F)c2o1)c1cncc2[nH]cnc12 [EXAMPLE 264]
4. C[C@@H](OC(=O)Cc1cc(F)cc2cc(CNC(=O)c3cnn4cccnc34)oc12)C(F)(F)F [EXAMPLE 367]
Lookup: Arrange these compounds by their EC50, starting with the largest number. Answer by writing out the labels in the requested order.
Found: 2, 4, 3, 1
(2: 19 µM, 4: 9.5 µM, 3: 1.7 µM, 1: 1.1 µM)

P. COC(=O)c1cc(O)cc2cc(CN3CCc4ccncc4C3=O)oc12 [EXAMPLE 103]
Q. Cc1cnc2c(C(=O)NCc3cc4cccc(C(=O)OCC(F)(F)F)c4o3)cnn2c1 [EXAMPLE 220]
Lookup: Looking only at measured EC50, which entry is lower, P or Q ? Return value: the label identifying the chosen record.
Found: Q

###

- System: NF-κB pathway, THP1-Dual™ cells
- method-notes: STING reporter assay in THP1-Dual cells, NF-κB pathway (SEAP, QUANTI-Blue)
- Type: cell-based, human
- conditions: Homo sapiens, THP1-Dual, 20 h, THP1-Dual cells, 10% human plasma, 20 hours; SEAP; 100% activation = 100 μM cGAMP; read-out: NFkB (EC50 μM)
endpoint-label: EC50 (µM)

                                   molecule  endpoint_label  readout_value
0  O=C(OCC(F)(F)F)c1cccc2cc(CN3CCc4ccncc4C3=O)oc12            EC50             14
1  COC(=O)c1cc(F)cc2cc(Cn3ccc4ccncc4c3=O)oc12            EC50            2.5
2  O=C(Cc1cc(Br)cc2cc(CNC(=O)c3cnn4cccnc34)oc12)OCC(F)(F)F            EC50             36
3  COC(=O)c1cc(Cl)cc2cc(CNC(=O)c3cncc4c3ncn4C)oc12            EC50            2.3
4  COc1ccn2ncc(C(=O)NCc3cc4cc(Cl)cc(C(=O)OC(C)C(F)(F)F)c4o3)c2n1 (single isomer, unassigned)            EC50             11

a. Cc1cc(C(=O)O[C@H](C)C(F)(F)F)c2oc(C(C)NC(=O)c3cnn4cccnc34)c(Cl)c2c1 (stereo partly shown)
b. COC(=O)c1cccc2cc(Cn3cccc(C#N)c3=O)oc12
c. Cc1cc(C(=O)OCC(F)(F)F)c2oc(Cn3cnc4ccncc4c3=O)cc2c1
d. CCC(C)OC(=O)c1cccc2cc(CN3CCc4ccncc4C3=O)oc12 (racemic)
e. O=C(OCCN1CCOCC1)c1cc(Cl)cc2cc(CNC(=O)c3cnn4cccnc34)oc12
Lookup: Order the entries by their reported EC50, beginning at the minimum. Answer by writing out the labels in the requested order.
Found: c, a, e, d, b
(c: 3.5 µM, a: 8.3 µM, e: 19 µM, d: 31 µM, b: 97 µM)

###

- System: NF-κB pathway, THP1-Dual™ cells
- method-notes: STING reporter assay in THP1-Dual cells, NF-κB pathway (SEAP, QUANTI-Blue)
- Assay type: cell-based, human
- conditions: Homo sapiens, THP1-Dual, 20 h, THP1-Dual cells, 10% human plasma, 20 hours; SEAP; 100% activation = 100 μM cGAMP; read-out: NFkB (EC50 μM)
endpoint-label: EC50 (µM)

Reference set (2 entries):
>>> df
                                   compound  endpoint_label  readout_value
0  CN1CCN(CCOC(=O)c2cc(Cl)cc3cc(CNC(=O)c4cnn5cccnc45)oc23)CC1            EC50             11
1  COC(=O)c1ccc(F)c2cc(Cn3cnc4ccncc4c3=O)oc12            EC50             15

P. Cc1ccn2ncc(C(=O)NCc3cc4cccc(C(=O)OCC(F)(F)F)c4o3)c2n1
Q. COC(=O)c1cc(Br)cc2cc(CN3Cc4ccncc4C3=O)oc12
R. COC(=O)c1cc(Cl)cc2cc(CNC(=O)c3cncc4[nH]c(C)nc34)oc12
S. Cc1cc(C(N)=O)c2oc(CNC(=O)c3cnn4cccnc34)cc2c1
Lookup: Order the entries by their reported EC50, beginning at the minimum. Answer by writing out the labels in the requested order.
Found: P, Q, R, S
(P: 10 µM, Q: 20 µM, R: 33 µM, S: 83 µM)

1. COC(=O)Cc1cc(F)cc2cc(CNC(=O)c3cnn4cccnc34)oc12
2. C[C@H](OC(=O)c1cc(F)cc2c(Cl)c(CNC(=O)c3cnn4cccnc34)oc12)C(F)(F)F
Lookup: Which entry has a larger number for EC50, 1 or 2 ? Return value: the label identifying the chosen record.
Found: 1
(1: 8.5 µM, 2: 0.71 µM)

P. C=Cc1cc(C(=O)OC)c2oc(CNC(=O)c3cnn4cccnc34)cc2c1
Q. COC(=O)c1cc(Br)cc2cc(CN3CCc4ccncc4C3=O)oc12
Lookup: Which entry has a larger number for EC50, P or Q ? Return value: the label identifying the chosen record.
Found: Q
(Q: 22 µM, P: 2.2 µM)

A. O=C(OCC(F)(F)C(F)F)c1cccc2cc(CN3CCc4ccncc4C3=O)oc12
B. Cc1ccc(C(=O)OCC(F)(F)F)c2oc(Cn3ccc4ccncc4c3=O)cc12
Lookup: Looking only at measured EC50, which entry is lower, A or B ? Return value: the label identifying the chosen record.
Found: B

A. COC(=O)c1cc(F)cc2cc(CNC(=O)c3cnn4ccc(OC)nc34)oc12
B. Cc1cc(C(=O)O[C@H](C)C(F)(F)F)c2oc(CNC(=O)c3cnn4cccnc34)c(Cl)c2c1
Lookup: Looking only at measured EC50, which entry is lower, A or B ? Return value: the label identifying the chosen record.
Found: B

1. COC(=O)c1cccc2cc(CN3Cc4c(F)cncc4C3=O)oc12
2. COC(=O)c1cccc2c(Cl)c(CNC(=O)c3cnn4cccnc34)oc12
3. COC(=O)c1cc(Cl)cc2cc(CNC(=O)c3cncc4[nH]cnc34)oc12
4. COc1cc(C(=O)OC(C)C(F)(F)F)c2oc(CNC(=O)c3cnn4cccnc34)cc2c1 (single isomer, unassigned)
5. COC(=O)c1cc(Cl)cc2cc(CNC(=O)c3cc(N)ccn3)oc12
Lookup: Arrange these compounds by their EC50, starting with the largest number. Answer by writing out the labels in the requested order.
Found: 1, 5, 4, 3, 2

A. N#CC1CC(OC(=O)c2cc(Cl)cc3cc(CNC(=O)c4cnn5cccnc45)oc23)C1 (stereo not shown)
B. O=C(O)c1cc(F)cc2c(Cl)c(CNC(=O)c3cnn4cccnc34)oc12
C. Cc1cc(CC(=O)O[C@H](C)C(F)(F)F)c2oc(CNC(=O)c3cnn4cccnc34)cc2c1
D. Cc1cc(C(=O)O)c2oc(CNC(=O)c3cncc4cccnc34)c(Cl)c2c1
Lookup: Order the entries by their reported EC50, beginning at the minimum. Answer by writing out the labels in the requested order.
Found: A, C, D, B

A. O=C(OC1COC1)c1cc(F)cc2cc(CNC(=O)c3cnn4cccnc34)oc12
B. COC(=O)c1cc(C)cc2cc(CNC(=O)c3cncc4cccnc34)oc12
Lookup: Looking only at measured EC50, which entry is lower, A or B ? Return value: the label identifying the chosen record.
Found: B
